Target: Lysine-specific demethylase 6B (Homo sapiens)
Assay: Inhibition of JMJD3 (unknown origin) using biotinylated H3K27me3 peptide as substrate at 10 uM after 1 hr by AlphaLISA assay
measuredQuantity: inhibition (%)
# value in %; strip the unit string

Worked examples follow.
molecule	resultUnit	dataValue
CC(C)NC(=O)CN1CCN(c2cc(-c3nccs3)nc(NCCC(=O)O)n2)CC1	%	-5.1
O=C(O)CCNc1nc(N2CCN(c3ccccn3)CC2)cc(-n2cc3ccccc3n2)n1	%	54
O=C(O)CCNc1nc(N2CCC(c3ccccc3)CC2)cc(-n2cc3ccccc3n2)n1	%	30

Moving on to the next compound.
In: So what does the record say about inhibition for CC(C)(C)OC(=O)NC1CCN(c2cc(-c3nccs3)nc(NCCC(=O)O)n2)CC1 ?
Out: 9.8

* * *

Biological target: Lysine-specific demethylase 6B (Homo sapiens, UniProt O15054)
Sequence (O15054 whole entry): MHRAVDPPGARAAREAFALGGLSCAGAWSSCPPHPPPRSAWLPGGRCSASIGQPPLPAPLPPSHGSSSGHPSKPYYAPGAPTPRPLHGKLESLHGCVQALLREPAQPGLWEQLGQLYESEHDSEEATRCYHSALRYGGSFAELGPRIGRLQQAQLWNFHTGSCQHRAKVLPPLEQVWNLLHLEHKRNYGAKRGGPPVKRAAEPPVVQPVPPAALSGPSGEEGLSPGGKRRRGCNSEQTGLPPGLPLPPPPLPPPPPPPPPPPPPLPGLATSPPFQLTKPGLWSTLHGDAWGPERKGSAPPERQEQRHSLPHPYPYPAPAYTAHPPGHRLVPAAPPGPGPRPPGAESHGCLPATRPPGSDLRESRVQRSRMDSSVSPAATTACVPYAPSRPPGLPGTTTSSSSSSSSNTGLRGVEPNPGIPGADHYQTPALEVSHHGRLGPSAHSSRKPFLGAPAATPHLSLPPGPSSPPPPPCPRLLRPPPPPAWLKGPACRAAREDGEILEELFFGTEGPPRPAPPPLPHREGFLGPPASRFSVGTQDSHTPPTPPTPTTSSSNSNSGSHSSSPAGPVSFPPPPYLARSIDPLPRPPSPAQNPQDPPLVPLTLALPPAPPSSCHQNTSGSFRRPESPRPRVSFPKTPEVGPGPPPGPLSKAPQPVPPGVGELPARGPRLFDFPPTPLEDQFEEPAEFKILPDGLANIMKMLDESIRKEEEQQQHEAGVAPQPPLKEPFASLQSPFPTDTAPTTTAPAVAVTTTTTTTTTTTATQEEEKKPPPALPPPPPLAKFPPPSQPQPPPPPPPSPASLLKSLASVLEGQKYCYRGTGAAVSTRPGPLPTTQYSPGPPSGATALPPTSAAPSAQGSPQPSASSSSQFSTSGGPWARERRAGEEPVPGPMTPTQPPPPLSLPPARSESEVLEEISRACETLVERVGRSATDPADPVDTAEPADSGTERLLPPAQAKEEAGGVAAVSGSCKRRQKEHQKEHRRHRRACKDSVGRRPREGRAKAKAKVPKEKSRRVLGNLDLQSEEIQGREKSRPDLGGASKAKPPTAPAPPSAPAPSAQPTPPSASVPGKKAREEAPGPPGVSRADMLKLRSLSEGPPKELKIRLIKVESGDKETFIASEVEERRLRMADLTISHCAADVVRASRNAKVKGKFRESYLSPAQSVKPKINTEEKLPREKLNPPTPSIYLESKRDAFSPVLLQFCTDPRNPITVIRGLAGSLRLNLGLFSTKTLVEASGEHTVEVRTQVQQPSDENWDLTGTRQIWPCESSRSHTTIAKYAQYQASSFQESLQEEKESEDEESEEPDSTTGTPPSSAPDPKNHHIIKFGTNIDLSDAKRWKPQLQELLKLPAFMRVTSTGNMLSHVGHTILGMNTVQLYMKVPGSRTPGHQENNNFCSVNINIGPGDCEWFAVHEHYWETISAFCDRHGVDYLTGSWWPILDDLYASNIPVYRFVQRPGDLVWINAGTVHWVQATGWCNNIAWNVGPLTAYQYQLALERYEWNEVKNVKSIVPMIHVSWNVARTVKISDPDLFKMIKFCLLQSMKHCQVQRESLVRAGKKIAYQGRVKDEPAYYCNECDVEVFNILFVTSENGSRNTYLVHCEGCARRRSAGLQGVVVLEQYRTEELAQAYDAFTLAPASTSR
Assay: Inhibition of JMJD3 (unknown origin) using biotinylated H3K27me3 peptide as substrate at 10 uM after 1 hr by AlphaLISA assay
Below, each of the compounds is paired with its reported inhibition value.
# value in %; strip the unit string

molecule	resultUnit	inhibition
CN(Cc1ccco1)c1cc(-c2nccs2)nc(NCCC(=O)O)n1	%	43.9
Cc1ccccc1CNc1cc(-c2nccs2)nc(NCCC(=O)O)n1	%	-0.6

In: Hello, I am looking for reported inhibition with Lysine-specific demethylase 6B (Homo sapiens, UniProt O15054) for O=C(O)CCNc1nc(N2CCN(c3ccc(Cl)c(Cl)c3)CC2)cc(-n2ccnn2)n1 . Could you help?
Out: 74

In: Hello, I am looking for reported inhibition with Lysine-specific demethylase 6B (Homo sapiens, UniProt O15054) for O=C(O)CCNc1nc(NC2CCN(Cc3ccccc3)CC2)cc(-c2nccs2)n1 . Could you help?
Out: 10

* * *

Dear all, this message contains IC50 results, target or system Lysine-specific demethylase 6B (Homo sapiens, UniProt O15054).
# value in µM; strip the unit string

Worked examples follow.
molecule	measuredQuantity	dataValue
O=C(O)CCNc1nc(-c2nccs2)cc(N2CCN(c3ccccn3)CC2)n1	IC50	0.9
O=C(O)CCNc1nc(N2CCc3ccccc3C2)cc(-n2ccnn2)n1	IC50	1.4
O=C(O)CCNc1nc(N2CCN(c3ccc(Cl)c(Cl)c3)CC2)cc(-n2cccn2)n1	IC50	0.74
O=C(O)CCNc1nc(-c2nccs2)cc(N2CCN(c3ccc(Cl)c(Cl)c3)CC2)n1	IC50	0.94

Moving on to the next molecule.
In: Hello, I am looking for reported IC50 with Lysine-specific demethylase 6B (Homo sapiens, UniProt O15054) for O=C(O)CCNc1nc(N2CCN(c3ccc(Cl)c(Cl)c3)CC2)cc(-n2nccn2)n1 . Could you help?
Out: 1.4
